# TESTED TARGET: Acetylcholinesterase (Electrophorus electricus, UniProt O42275)
# Construct: The enzyme employed was prepared from the electric organ of the electric eel; from tissue; host or cells: electric organ of the electric eel
# Sequence (O42275 24-633): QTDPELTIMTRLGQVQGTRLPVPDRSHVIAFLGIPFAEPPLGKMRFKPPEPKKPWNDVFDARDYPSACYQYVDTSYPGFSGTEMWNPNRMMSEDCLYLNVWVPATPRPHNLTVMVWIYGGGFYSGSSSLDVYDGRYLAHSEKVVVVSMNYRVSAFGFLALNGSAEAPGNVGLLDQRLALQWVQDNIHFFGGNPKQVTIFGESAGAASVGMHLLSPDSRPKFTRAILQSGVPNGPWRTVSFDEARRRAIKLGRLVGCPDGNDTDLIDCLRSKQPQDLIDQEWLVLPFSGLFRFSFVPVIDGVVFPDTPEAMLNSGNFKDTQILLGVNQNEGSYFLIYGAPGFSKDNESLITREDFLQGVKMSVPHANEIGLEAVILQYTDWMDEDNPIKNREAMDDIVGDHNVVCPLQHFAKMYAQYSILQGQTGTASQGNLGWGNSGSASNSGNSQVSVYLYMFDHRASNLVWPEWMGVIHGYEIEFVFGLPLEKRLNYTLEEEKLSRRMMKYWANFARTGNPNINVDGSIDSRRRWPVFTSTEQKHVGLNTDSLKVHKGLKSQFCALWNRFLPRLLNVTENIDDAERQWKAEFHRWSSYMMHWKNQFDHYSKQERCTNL
# PROTOCOL DETAILS: Acetylcholinesterase activity, acetylthiocholine substrate, colorimetric (Ellman)
# Assay type: biochemical, electric eel
# SETUP CONDITIONS: electric eel enzyme, acetylthiocholine substrate; read-out: Acetylcholinesterase Activity IC50
MEASUREMENT NAME: pIC50
Kindly note that pIC50 refers to -log10 of the concentration in mol/L and answer with the value alone.

Look up and report measured pIC50 for this entry: CCN(CC)CCCC(C)Nc1ccnc2cc(Cl)ccc12 (stereo not shown) [Chloroquine, chloroquine]
5.40
